Tested on: COLO 205
Test: Cytotoxicity against human COLO205 cells assessed as cell growth at 0.01 uM after 48 hrs by sulforhodamine B assay
Assay type: functional
Details: COLO 205, 48 h, read-out: Activity
# growth at 0.01 µM listing for each entry below

smilesRecord	growth at 0.01 µM
Cc1cc(O)cc(-c2nn(CC#N)cc2-c2ccnc(-c3ccc(Oc4ccccc4)cc3)c2)c1	99%
Cc1cc(O)cc(-c2nn(CC#N)cc2-c2ccnc(-c3ccc(N(C)C)cc3)c2)c1	95%
COc1cc(C)cc(-c2nn(CC#N)cc2-c2ccnc(-c3ccc(N(C)C)cc3)c2)c1	116%
COc1cc(C)cc(-c2c(-c3ccnc(-c4ccc(C(C)=O)cc4)c3)cnn2CC#N)c1	102%
COc1cc(C)cc(-c2nn(CC#N)cc2-c2ccc(-c3cccc(C(C)=O)c3)nc2)c1	100%
COc1cc(C)cc(-c2c(-c3ccnc(-c4ccc(N(C)C)cc4)c3)cnn2CC#N)c1	72%

---

Items are presented alongside their recorded LC50 (concentration giving 50% net cell kill).
System: ACHN
Assay: Growth inhibition of human ACHN cells after 48 hrs by sulforhodamine B assay
Type: functional
measuredQuantity: LC50 (concentration giving 50% net cell kill)

smilesRecord	measurement
COc1cc(C)cc(-c2c(-c3ccnc(-c4ccc(N(C)C)cc4)c3)cnn2CC#N)c1	> 100 µM
Cc1cc(O)cc(-c2nn(CC#N)cc2-c2ccnc(-c3ccc(N(C)C)cc3)c2)c1	> 100 µM
COc1cc(C)cc(-c2nn(CC#N)cc2-c2ccnc(-c3ccc(N(C)C)cc3)c2)c1	> 100 µM
COc1cc(C)cc(-c2c(-c3ccnc(-c4ccc(C(C)=O)cc4)c3)cnn2CC#N)c1	> 100 µM
Cc1cc(O)cc(-c2nn(CC#N)cc2-c2ccnc(-c3ccc(Oc4ccccc4)cc3)c2)c1	33.8 µM
COc1cc(C)cc(-c2nn(CC#N)cc2-c2ccc(-c3cccc(C(C)=O)c3)nc2)c1	> 100 µM

---

Each item that follows carries a reported inhibition of growth at 10 µM.
Test: Growth inhibition of human NCI60 cells at 10 uM after 48 hrs by sulforhodamine B assay relative to control
Format: functional
Conditions: NCI60, 48 h, read-out: GI

smilesRecord	readingUnit	inhibition of growth at 10 µM
COc1cc(C)cc(-c2c(-c3ccnc(-c4ccc(N(C)C)cc4)c3)cnn2CC#N)c1	%	88.4
COc1cc(C)cc(-c2nn(CC#N)cc2-c2ccnc(-c3ccc(C(C)=O)cc3)c2)c1	%	18.2
Cc1cc(O)cc(-c2nn(CC#N)cc2-c2ccnc(-c3ccc(N(C)C)cc3)c2)c1	%	65.3
COc1cc(C)cc(-c2nn(CC#N)cc2-c2ccnc(-c3ccc(N(C)C)cc3)c2)c1	%	92.3

---

Reported growth at 10 µM values are given for each entry in this list.
System: UACC-62
Assay: Cytotoxicity against human UACC62 cells assessed as cell growth at 10 uM
Assay type: functional
Conditions: read-out: Activity

smilesRecord	readingUnit	growth at 10 µM
Cc1cc(O)cc(-c2nn(CC#N)cc2-c2ccnc(-c3ccc(Oc4ccccc4)cc3)c2)c1	%	68.1
COc1cc(C)cc(-c2nn(CC#N)cc2-c2ccnc(-c3cccc(NC(C)=O)c3)c2)c1	%	81.7
COc1cc(C)cc(-c2c(-c3ccnc(-c4ccc(C(C)=O)cc4)c3)cnn2CC#N)c1	%	49.6
COc1cc(C)cc(-c2nn(CC#N)cc2-c2ccnc(-c3ccc(Oc4ccccc4)cc3)c2)c1	%	65.8

---

Test system: HOP-92
Experiment: Growth inhibition of human HOP92 cells after 48 hrs by sulforhodamine B assay
Format: functional
Conditions: HOP-92, 48 h
measuredQuantity: TGI

smilesRecord	assayedTarget	measurement
COc1cc(C)cc(-c2c(-c3ccnc(-c4ccc(C(C)=O)cc4)c3)cnn2CC#N)c1	HOP-92	7.56 µM
Cc1cc(O)cc(-c2nn(CC#N)cc2-c2ccnc(-c3ccc(N(C)C)cc3)c2)c1	HOP-92	46.8 µM
COc1cc(C)cc(-c2c(-c3ccnc(-c4ccc(N(C)C)cc4)c3)cnn2CC#N)c1	HOP-92	0.0553 µM
COc1cc(C)cc(-c2nn(CC#N)cc2-c2ccc(-c3cccc(C(C)=O)c3)nc2)c1	HOP-92	9.09 µM
COc1cc(C)cc(-c2nn(CC#N)cc2-c2ccnc(-c3ccc(N(C)C)cc3)c2)c1	HOP-92	26.6 µM
Cc1cc(O)cc(-c2nn(CC#N)cc2-c2ccnc(-c3ccc(Oc4ccccc4)cc3)c2)c1	HOP-92	5.24 µM

---

Tested on: OVCAR-8
Assay: Cytotoxicity against human OVCAR8 cells assessed as cell growth at 1 uM after 48 hrs by sulforhodamine B assay
Assay type: functional
Details: OVCAR-8, 48 h, read-out: Activity

smilesRecord	assayedTarget	growth at 1 µM / %
Cc1cc(O)cc(-c2nn(CC#N)cc2-c2ccnc(-c3ccc(Oc4ccccc4)cc3)c2)c1	OVCAR-8	-30
COc1cc(C)cc(-c2c(-c3ccnc(-c4ccc(N(C)C)cc4)c3)cnn2CC#N)c1	OVCAR-8	12
COc1cc(C)cc(-c2c(-c3ccnc(-c4ccc(C(C)=O)cc4)c3)cnn2CC#N)c1	OVCAR-8	8
COc1cc(C)cc(-c2nn(CC#N)cc2-c2ccnc(-c3ccc(N(C)C)cc3)c2)c1	OVCAR-8	14
Cc1cc(O)cc(-c2nn(CC#N)cc2-c2ccnc(-c3ccc(N(C)C)cc3)c2)c1	OVCAR-8	27
COc1cc(C)cc(-c2nn(CC#N)cc2-c2ccc(-c3cccc(C(C)=O)c3)nc2)c1	OVCAR-8	14

---

System: M14
Experiment: Cytotoxicity against human M14 cells assessed as cell growth at 0.001 uM after 48 hrs by sulforhodamine B assay
Format: functional
Settings: M14, 48 h, read-out: Activity

smilesRecord	growth at 0.001 µM
COc1cc(C)cc(-c2nn(CC#N)cc2-c2ccnc(-c3ccc(N(C)C)cc3)c2)c1	96%
Cc1cc(O)cc(-c2nn(CC#N)cc2-c2ccnc(-c3ccc(Oc4ccccc4)cc3)c2)c1	95%
COc1cc(C)cc(-c2c(-c3ccnc(-c4ccc(N(C)C)cc4)c3)cnn2CC#N)c1	95%
COc1cc(C)cc(-c2c(-c3ccnc(-c4ccc(C(C)=O)cc4)c3)cnn2CC#N)c1	95%
Cc1cc(O)cc(-c2nn(CC#N)cc2-c2ccnc(-c3ccc(N(C)C)cc3)c2)c1	96%
COc1cc(C)cc(-c2nn(CC#N)cc2-c2ccc(-c3cccc(C(C)=O)c3)nc2)c1	94%

---

In this section, each of the compounds is paired with its reported log10 of CC50.
Tested on: NCI-H460
Assay: Growth inhibition of human NCI-H460 cells after 48 hrs by sulforhodamine B assay
Assay type: functional
Conditions: NCI-H460, 48 h, read-out: LC50 (the source's name)
measuredQuantity: log10 of CC50 (log10 of the value in µM)

smilesRecord	log10 of CC50
Cc1cc(O)cc(-c2nn(CC#N)cc2-c2ccnc(-c3ccc(Oc4ccccc4)cc3)c2)c1	0.84
COc1cc(C)cc(-c2nn(CC#N)cc2-c2ccc(-c3cccc(C(C)=O)c3)nc2)c1	1.42
Cc1cc(O)cc(-c2nn(CC#N)cc2-c2ccnc(-c3ccc(N(C)C)cc3)c2)c1	1.85
COc1cc(C)cc(-c2nn(CC#N)cc2-c2ccnc(-c3ccc(N(C)C)cc3)c2)c1	1.98
COc1cc(C)cc(-c2c(-c3ccnc(-c4ccc(N(C)C)cc4)c3)cnn2CC#N)c1	0.70

---

Test system: HT-29
Assay: Cytotoxicity against human HT-29 cells assessed as cell growth at 1 uM after 48 hrs by sulforhodamine B assay
Assay type: functional
Settings: HT-29, 48 h, read-out: Activity
In this section, each of the compounds is paired with its reported growth at 1 µM.
measuredQuantity: growth at 1 µM (%)

smilesRecord	assayedTarget	readingUnit	measurement
Cc1cc(O)cc(-c2nn(CC#N)cc2-c2ccnc(-c3ccc(N(C)C)cc3)c2)c1	HT-29	%	24
Cc1cc(O)cc(-c2nn(CC#N)cc2-c2ccnc(-c3ccc(Oc4ccccc4)cc3)c2)c1	HT-29	%	-65
COc1cc(C)cc(-c2nn(CC#N)cc2-c2ccnc(-c3ccc(N(C)C)cc3)c2)c1	HT-29	%	-29
COc1cc(C)cc(-c2c(-c3ccnc(-c4ccc(N(C)C)cc4)c3)cnn2CC#N)c1	HT-29	%	-51
COc1cc(C)cc(-c2nn(CC#N)cc2-c2ccc(-c3cccc(C(C)=O)c3)nc2)c1	HT-29	%	4
COc1cc(C)cc(-c2c(-c3ccnc(-c4ccc(C(C)=O)cc4)c3)cnn2CC#N)c1	HT-29	%	7

---

Tested on: OVCAR-8
Experiment: Cytotoxicity against human OVCAR8 cells assessed as cell growth at 10 uM after 48 hrs by sulforhodamine B assay
Format: functional
Settings: OVCAR-8, 48 h, read-out: Activity
Each entry below carries its reported growth at 10 µM.

smilesRecord	growth at 10 µM [%]
Cc1cc(O)cc(-c2nn(CC#N)cc2-c2ccnc(-c3ccc(Oc4ccccc4)cc3)c2)c1	-88
Cc1cc(O)cc(-c2nn(CC#N)cc2-c2ccnc(-c3ccc(N(C)C)cc3)c2)c1	-5
COc1cc(C)cc(-c2c(-c3ccnc(-c4ccc(N(C)C)cc4)c3)cnn2CC#N)c1	8
COc1cc(C)cc(-c2c(-c3ccnc(-c4ccc(C(C)=O)cc4)c3)cnn2CC#N)c1	10
COc1cc(C)cc(-c2nn(CC#N)cc2-c2ccnc(-c3ccc(N(C)C)cc3)c2)c1	-8
COc1cc(C)cc(-c2nn(CC#N)cc2-c2ccc(-c3cccc(C(C)=O)c3)nc2)c1	-11
